- Protocol Description: inhibitors of PAF-induced NFkB signaling in CF airway cells, dose response, cell-based, uHTS hits, panel, cytotoxicity readout (AID 624344)
- Study Conditions: CF bronchial epithelial cells, PAF-induced NFkB reporter inhibition, with PAF, run 2; at 79 µM (top of the series) unless noted
The reader will find reported inhibition values listed item by item below.
Observed Property: inhibition (%)

- Molecule: "COc1ccc(S(=O)(=O)N2c3ccc(F)cc3CCC2C)cc1 (configuration not stated)"
  Observed Property: "inhibition"
  Unit: "%"
  Number: 71.7
- Molecule: "Cn1c(SC2=CS(=O)(=O)c3ccccc32)nc2ccccc21"
  Observed Property: "inhibition"
  Unit: "%"
  Number: 102
- Molecule: "CCCCCOC(=O)c1[nH]c2c(c1C)C(=O)CC(c1ccco1)C2 (configuration not stated)"
  Observed Property: "inhibition"
  Unit: "%"
  Number: 62.8
- Molecule: "COc1ccc(CN2C[C@H]3CCCN3c3cc(Br)ccc3S2(=O)=O)cc1"
  Observed Property: "inhibition"
  Unit: "%"
  Number: 92.2
- Molecule: "O=C(Nc1ccc(Br)c2ccccc12)c1ccc2ccccc2c1O"
  Observed Property: "inhibition"
  Unit: "%"
  Number: 104
- Molecule: "Clc1ccc(-c2csc3ncnc(N4CCc5ccccc5C4)c23)cc1"
  Observed Property: "inhibition"
  Unit: "%"
  Number: 112
- Molecule: "CC1(Cc2ccc(F)cc2)C(=O)Nc2ccc(-c3cccnc3)cc21 (configuration not stated)"
  Observed Property: "inhibition"
  Unit: "%"
  Number: 108
- Molecule: "COCCN1Cc2cccc(C(=O)Nc3cccc(-c4nc5ccccc5[nH]4)c3)c2C1=O"
  Observed Property: "inhibition"
  Unit: "%"
  Number: 114
- Molecule: "Fc1ccccc1-c1csc(=Nc2cccnc2)n1CCCn1ccnc1"
  Observed Property: "inhibition"
  Unit: "%"
  Number: 94.9
- Molecule: "CCN1CCN(Cc2ccc(NC(=O)c3ccc(C)c(NC(=O)N4CCNC4=O)c3)cc2C(F)(F)F)CC1"
  Observed Property: "inhibition"
  Unit: "%"
  Number: 119
- Molecule: "COc1ccc(OC)c(N(CCN2C(=O)c3ccccc3C2=O)C(=O)CCl)c1"
  Observed Property: "inhibition"
  Unit: "%"
  Number: 101
- Molecule: "O=S(=O)(c1ccc(Br)cc1)c1cnc2ccccc2n1"
  Observed Property: "inhibition"
  Unit: "%"
  Number: 106
- Molecule: "CCOC(=O)COc1ccc2ccccc2c1/C=C/[N+](=O)[O-]"
  Observed Property: "inhibition"
  Unit: "%"
  Number: 97.5
- Molecule: "COc1ccc2[nH]cc(C(=O)CCl)c2c1"
  Observed Property: "inhibition"
  Unit: "%"
  Number: 99.6
- Molecule: "O=C(Nc1ccc(Oc2ccc(NC(=O)Nc3ccc([N+](=O)[O-])cc3)cc2)cc1)Nc1ccc([N+](=O)[O-])cc1"
  Observed Property: "inhibition"
  Unit: "%"
  Number: 114
- Molecule: "Cc1ccccc1S(=O)(=O)Cc1ccc(C(=O)N2CCN(c3cccc(C)c3C)CC2)o1"
  Observed Property: "inhibition"
  Unit: "%"
  Number: 114
- Molecule: "Oc1ccc(C[C@H]2CNC(=S)N2CC2CCCN2C[C@H](Cc2ccc(O)cc2)N2C[C@H](Cc3ccc(O)cc3)N(CC3CCCCC3)C2=S)cc1 (some centres not stated)"
  Observed Property: "inhibition"
  Unit: "%"
  Number: 105
- Molecule: "CCOC(=O)c1c(-c2ccc(C)cc2)csc1NC(=O)c1ccc(N2C(=O)CCC2=O)cc1"
  Observed Property: "inhibition"
  Unit: "%"
  Number: 81.4
- Molecule: "C=C(C)COc1ccc(-c2[nH]ncc2-c2ccc(OC)cc2)c(O)c1"
  Observed Property: "inhibition"
  Unit: "%"
  Number: 105
- Molecule: "COc1ccc(-c2cc(=O)oc3c(C)c(OC(=O)c4cccs4)ccc23)cc1"
  Observed Property: "inhibition"
  Unit: "%"
  Number: 93
- Molecule: "COc1ccc(OC)c(-c2nnc3n2N=C(c2ccc(OC)c(OCC4CC4)c2)CS3)c1"
  Observed Property: "inhibition"
  Unit: "%"
  Number: 85.1
- Molecule: "Cc1c(NC(=O)c2cc(-c3cccs3)nc3ccccc23)c(=O)n(-c2ccccc2)n1C"
  Observed Property: "inhibition"
  Unit: "%"
  Number: 103
- Molecule: "O=C(c1cncc(Br)c1)N1CCc2ccccc2C1"
  Observed Property: "inhibition"
  Unit: "%"
  Number: 80.2
- Molecule: "CC(C)CN=C(NS(=O)(=O)c1ccccc1)C(Cl)(Cl)Cl"
  Observed Property: "inhibition"
  Unit: "%"
  Number: 112
- Molecule: "CCOc1ccccc1NC(=S)Nc1ccc2cn[nH]c2c1"
  Observed Property: "inhibition"
  Unit: "%"
  Number: 114
- Molecule: "CCSc1nsc(NC(=O)Nc2cccc(OC)c2)n1"
  Observed Property: "inhibition"
  Unit: "%"
  Number: 113
- Molecule: "C/C(=N\\Nc1cc(N2CCOCC2)ncn1)c1cccc([N+](=O)[O-])c1"
  Observed Property: "inhibition"
  Unit: "%"
  Number: 95.3
- Molecule: "Cc1cc(N2C(=O)C(O)=C(C(=O)c3ccc(C)o3)C2c2cccc(Oc3ccccc3)c2)no1 (configuration not stated)"
  Observed Property: "inhibition"
  Unit: "%"
  Number: 82.8
- Molecule: "CCN(CC)CCNC(=O)c1ccc(NC(=O)C2CCN(c3ncnc4sc(C)c(C)c34)CC2)cc1"
  Observed Property: "inhibition"
  Unit: "%"
  Number: 103
- Molecule: "Cn1c(Oc2ccc(Cl)cc2)c(C=O)c2ccccc21"
  Observed Property: "inhibition"
  Unit: "%"
  Number: 109
- Molecule: "O=C(c1ccc(O)c(Br)c1)c1cc(Br)ccc1O"
  Observed Property: "inhibition"
  Unit: "%"
  Number: 109
- Molecule: "Cc1ccccc1C(=O)N1CCN(c2ccc(NC(=O)CSc3ccc(Cl)cc3)cc2)CC1"
  Observed Property: "inhibition"
  Unit: "%"
  Number: 71.9
- Molecule: "CC(C)C[C@H]1CNC(=S)N1C[C@H]1CCCN1C[C@H](Cc1ccc(O)cc1)N1C[C@H](Cc2ccc(O)cc2)N(CC2CCCCC2)C1=S"
  Observed Property: "inhibition"
  Unit: "%"
  Number: 111
- Molecule: "Cc1ccc(C(=O)c2cc([N+](=O)[O-])ccc2N2CCCCC2)c(C)c1"
  Observed Property: "inhibition"
  Unit: "%"
  Number: 54.3
- Molecule: "Cc1[nH]nc2ncc(C(=O)c3ccccc3O)cc12"
  Observed Property: "inhibition"
  Unit: "%"
  Number: 92.1
- Molecule: "ON=C1c2ccccc2-c2cc(Br)ccc21"
  Observed Property: "inhibition"
  Unit: "%"
  Number: 106
- Molecule: "CCc1ccc(N(CC)c2ncnc3nc[nH]c23)cc1"
  Observed Property: "inhibition"
  Unit: "%"
  Number: 99.3
- Molecule: "CCOc1ccc(NCc2cc3c(C(C)(C)C)nn(-c4ccccc4)c3[nH]c2=O)cc1"
  Observed Property: "inhibition"
  Unit: "%"
  Number: 109
- Molecule: "Cc1ccc(NS(=O)(=O)c2ccc(-c3cnc(C4CC4)o3)cc2)c(C)c1"
  Observed Property: "inhibition"
  Unit: "%"
  Number: 111
- Molecule: "c1ccc2c(-c3cncc4ccccc34)cncc2c1"
  Observed Property: "inhibition"
  Unit: "%"
  Number: 99.8
- Molecule: "CCCN(CCC)c1ncnc2nc[nH]c12"
  Observed Property: "inhibition"
  Unit: "%"
  Number: 108
- Molecule: "Cc1cccc(N(Cc2cc(=O)[nH]c3ccccc23)C(=O)CCl)c1"
  Observed Property: "inhibition"
  Unit: "%"
  Number: 90.7
